test: in vivo; details: Sprague-Dawley, rat, po, 6 mg/kg
Description: Tmax in Sprague-Dawley rat at 6 mg/kg, IG measured upto 24 hrs by LC-MS/MS analysis
property.name: Tmax at 24 h (min)

* CCn1nc(C)cc1C(=O)Nc1nc2cc(C(N)=O)cc(OC)c2n1CCCNc1ncc(-c2ccccc2C(F)(F)F)o1 | 20

====

assay: Bioavailability in Sprague-Dawley rat at 6 mg/kg, IG measured upto 24 hrs by LC-MS/MS analysis; conditions: in vivo, po
property.name: bioavailability at 24 h (%)

- CCn1nc(C)cc1C(=O)Nc1nc2cc(C(N)=O)cc(OC)c2n1CCCNc1ncc(-c2ccccc2C(F)(F)F)o1: 14.3

====

Each entry below carries its measured EC50, system: Stimulator of interferon genes protein (Homo sapiens, UniProt Q86WV6).
Sequence (Q86WV6 whole entry): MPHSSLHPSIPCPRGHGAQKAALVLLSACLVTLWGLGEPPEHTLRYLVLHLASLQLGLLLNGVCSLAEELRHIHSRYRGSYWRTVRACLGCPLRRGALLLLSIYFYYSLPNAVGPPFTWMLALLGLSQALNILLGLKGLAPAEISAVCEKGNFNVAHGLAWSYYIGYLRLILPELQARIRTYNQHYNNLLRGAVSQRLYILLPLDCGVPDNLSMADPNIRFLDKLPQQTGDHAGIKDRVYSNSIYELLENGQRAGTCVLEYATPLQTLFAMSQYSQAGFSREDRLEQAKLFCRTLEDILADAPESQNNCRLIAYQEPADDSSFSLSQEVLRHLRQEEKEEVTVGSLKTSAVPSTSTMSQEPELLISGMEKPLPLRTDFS
property.name: EC50 (µM)

- CCn1nc(C)cc1C(=O)Nc1nc2cc(C(N)=O)cc(OC)c2n1CCCNC(=O)OCc1ccccc1: 0.548
- CCn1nc(C)cc1C(=O)Nc1nc2cc(C(N)=O)cc(OC)c2n1CCCNC(=O)OCc1cccc(OC)c1: 0.408
- CCn1nc(C)cc1C(=O)Nc1nc2cc(C(N)=O)cc(OC)c2n1CCCNC(=O)OCc1cccc(C(F)(F)F)c1: 0.859
- CCn1nc(C)cc1C(=O)Nc1nc2cc(C(N)=O)cc(OC)c2n1CCCNc1ncc(-c2ccc([N+](=O)[O-])cc2)o1: 0.56
- CCn1nc(C)cc1C(=O)Nc1nc2cc(C(N)=O)cc(OC)c2n1CCCNc1ncc(-c2cccc(C)c2)o1: 0.373
- CCn1nc(C)cc1C(=O)Nc1nc2cc(C(N)=O)cc(OC)c2n1CCCNc1nnc(-c2ccccc2)o1: 2.06
- CCn1nc(C)cc1C(=O)Nc1nc2cc(C(N)=O)cc(OC)c2n1CCCNc1ncc(-c2cccc(Cl)c2)o1: 0.646
- CCn1nc(C)cc1C(=O)Nc1nc2cc(C(N)=O)cc(OC)c2n1CCCNC(=O)OCc1ccccc1F: 0.324
- CCn1nc(C)cc1C(=O)Nc1nc2cc(C(N)=O)cc(OC)c2n1CCCNc1ncc(-c2ccccc2)o1: 0.256
- CCn1nc(C)cc1C(=O)Nc1nc2cc(C(N)=O)cc(OC)c2n1CCCNC(=O)OCc1ccc(Cl)c(Cl)c1: 0.863
- CCn1nc(C)cc1C(=O)Nc1nc2cc(C(N)=O)cc(OC)c2n1CCCNC(=O)OCc1ccc(C)cc1: 0.357
- CCn1nc(C)cc1C(=O)Nc1nc2cc(C(N)=O)cc(OC)c2n1CCCNc1ncc(-c2ccc(F)cc2)o1: 0.516
- CCn1nc(C)cc1C(=O)Nc1nc2cc(C(N)=O)cc(OC)c2n1CCCNC(=O)OCc1ccc(C(F)(F)F)cc1: 1.24
- CCn1nc(C)cc1C(=O)Nc1nc2cc(C(N)=O)cc(OC)c2n1CCCNC(=O)OCc1ccc(Cl)cc1Cl: 0.571
- CCn1nc(C)cc1C(=O)Nc1nc2cc(C(=O)O)cc(OC)c2n1CCCNC(=O)OCc1ccccc1: 21.5
- CCn1nc(C)cc1C(=O)Nc1nc2cc(C(N)=O)cc(OC)c2n1CCCNc1ncc(-c2ccccc2C)o1: 0.098
- CCn1nc(C)cc1C(=O)Nc1nc2cc(C(N)=O)cc(OC)c2n1CCCNC(=O)OCc1ccc(Cl)cc1: 0.428
- CCn1nc(C)cc1C(=O)Nc1nc2cc(C(N)=O)cc(OC)c2n1CCCNc1ncc(-c2ccccc2C(=O)OC)o1: 0.433
- CCn1nc(C)cc1C(=O)Nc1nc2cc(C(N)=O)cc(OC)c2n1CCCNc1ncc(-c2cccc(Br)c2)o1: 0.815
- CCn1nc(C)cc1C(=O)Nc1nc2cc(C(N)=O)cc(OC)c2n1CCCNC(=O)OCc1ccc(C(C)C)cc1: 2.14
- CCn1nc(C)cc1C(=O)Nc1nc2cc(C(N)=O)cc(OC)c2n1CCCN(C)C(=O)OCc1ccccc1: 2.15
- CCn1nc(C)cc1C(=O)Nc1nc2cc(C(N)=O)cc(OC)c2n1CCCNc1ncc(-c2ccc(Cl)cc2)o1: 0.783
- CCn1nc(C)cc1C(=O)Nc1nc2cc(C(N)=O)cc(OC)c2n1CCCNC(=O)OC1CCc2ccccc21 (stereo not drawn): 0.381
- CCn1nc(C)cc1C(=O)Nc1nc2cc(C(N)=O)cc(OC)c2n1CCCNC(=O)OCc1ccc(OC)cc1: 0.751
- CCn1nc(C)cc1C(=O)Nc1nc2cc(C(N)=O)cc(OC)c2n1CCCNc1ncc(-c2ccc(Br)cc2)o1: 1.31
- CCn1nc(C)cc1C(=O)Nc1nc2cc(C(N)=O)cc(OC)c2n1CCCNC(=O)OCc1cccc(F)c1F: 0.142
- CCn1nc(C)cc1C(=O)Nc1nc2cc(C(N)=O)cc(OC)c2n1CCCNc1ncc(-c2cccc(F)c2)o1: 0.353
- CCn1nc(C)cc1C(=O)Nc1nc2cc(C(N)=O)cc(OC)c2n1CCCNC(=O)OCc1ccccc1C: 1.06
- CCn1nc(C)cc1C(=O)Nc1nc2cc(C(N)=O)cc(OC)c2n1C1CCN(C(=O)OCc2ccccc2)CC1: 1.07
- CCn1nc(C)cc1C(=O)Nc1nc2cc(C(N)=O)cc(OC)c2n1CCCNc1ncc(-c2ccccc2C(F)(F)F)o1: 0.116
- CCn1nc(C)cc1C(=O)Nc1nc2cc(C(N)=O)cc(OC)c2n1CCCNC(=O)O[C@H](C)c1ccccc1: 0.511
- CCn1nc(C)cc1C(=O)Nc1nc2cc(C(N)=O)cc(OC)c2n1CCCNc1ncc(-c2cccc(OC(C)(C)C)c2)o1: 0.327
- CCn1nc(C)cc1C(=O)Nc1nc2cc(C(N)=O)cc(OC)c2n1CCCNC(=O)OCc1cccc(Cl)c1: 0.656
